# experimentalTarget: Aryl hydrocarbon receptor (Homo sapiens)
# protocolDetails: qHTS assay to identify small molecule that activate the aryl hydrocarbon receptor (AhR) signaling pathway (AID 743085); further: nearly all actives have a fitted effect of over 15% in size;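 on activation: HG2L7.5c1 human HepG2 liver cells with stably integrated DRE-driven firefly reporter; on the % scale 0 is the no-effect control and ±100 the full control effect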
# condition: HepG2 AhR-luc (HG2L7.5c1), luciferase, 24 h; series mostly up to 70.3 µM
Inconclusive results are not listed. Active and inactive are the calls of the source. The call rests on the fitted dose curve; in most records, active means well fitted activation curve with a large enough effect in the repeat runs; inconclusive means weak or mixed curves; inactive means no such curve, though single readings can be large or run the other way.
# output must be one of class 1 for active, class 0 for inactive

Some solved entries appear below for comparison.
>  <compound>
CCCCCCCC(=O)OCC(COC(=O)CCCCCCC)OC(=O)CCCCCCC

>  <cat>
class 0

$$$$
>  <compound>
CCCCCCc1ccc(O)cc1O

>  <cat>
class 0

$$$$
>  <compound>
NS(=O)(=O)c1cc2c(cc1Cl)NCNS2(=O)=O

>  <cat>
class 0

$$$$
>  <compound>
CC/C(=C(\c1ccccc1)c1ccc(OCCN(C)C)cc1)c1ccccc1

>  <cat>
class 0

$$$$
>  <compound>
Cn1c(=O)c2c(ncn2C)n(C)c1=O

>  <cat>
class 0

$$$$

Lookup: Outcome? COc1ccc(OC(F)(F)F)cc1CN[C@H]1CCCN[C@H]1c1ccccc1
Found: class 0

Lookup: What did this assay record as the result for CC(C)C(=O)Nc1ccc([N+](=O)[O-])c(C(F)(F)F)c1 ?
Found: class 0

Lookup: Record lookup: outcome of this test for C=C1CC[C@H](O)C/C1=C\C=C1/CCC[C@]2(C)[C@@H]([C@H](C)CCCC(C)C)CC[C@@H]12 ?
Found: class 0

Lookup: Just curious, what result did CCOc1ccc(NC(C)=O)cc1 get here?
Found: class 0

Lookup: Identify the outcome logged in this assay for the compound shown: F[B-](F)(F)F
Found: class 0

Lookup: Given NS(=O)(=O)O , state the outcome it received in this test.
Found: class 0

Lookup: Field: outcome | Entry: O=C1NC(=O)C(c2ccccc2)(c2ccccc2)N1
Found: class 0

Lookup: Assay outcome for COc1cccc(O)c1O : what was it?
Found: class 1

###

# protocolDetails: qHTS assay to identify small molecule agonists of the endoplasmic reticulum stress response signaling pathway (AID 1159516); further: on the % scale 0 is the no-effect control and ±100 the full control effect
# condition: ESRE-bla HeLa, ER stress beta-lactamase reporter, 5 h; series mostly up to 61 µM
Records with an inconclusive call do not appear. Calls of active or inactive are those of the source. Calls follow the shape of the dose curve; as a rule, active = well fitted activation curve with a large enough effect in the signal ratio in the repeat runs (not every such curve was filed as active); inconclusive = weak or mixed curves, or effect the other way; inactive = flat fitted curve, though single readings scatter; the % refers to the signal ratio.
quantityMeasured: outcome

>  <compound>
CC(C)NCC(O)c1ccc(O)c(O)c1 (configuration not stated)

>  <outcome>
inactive

$$$$
>  <compound>
NC(=O)c1cccnc1

>  <outcome>
inactive

$$$$
>  <compound>
CC(=O)CC(c1ccccc1)c1c(O)c2ccccc2oc1=O (configuration not stated)

>  <outcome>
inactive

$$$$
>  <compound>
CCCCCCc1ccc(O)cc1O

>  <outcome>
inactive

$$$$
>  <compound>
O=C1O[C@H]([C@@H](O)CO)C(O)=C1O

>  <outcome>
inactive

$$$$

Lookup: Return reported outcome; argument: Cc1c(C(=O)O)c(O)cc2c1C(=O)c1c(O)c([C@@H]3O[C@H](CO)[C@@H](O)[C@H](O)[C@H]3O)c(O)c(O)c1C2=O
Found: inactive

Lookup: Form field: reported outcome of CN(C)CCOC(c1ccccc1)c1ccccc1
Found: inactive

Lookup: Dear colleague, I am looking for the recorded outcome of the following compound: COc1ccc(CN(CCN(C)C)c2ccccn2)cc1
Found: inactive

Lookup: Need outcome of CN1CCc2cccc3c2[C@H]1Cc1ccc(O)c(O)c1-3 , thanks.
Found: inactive

Lookup: Would you mind telling me what outcome value was observed for COc1ccc(C(Cl)=C(c2ccc(OC)cc2)c2ccc(OC)cc2)cc1 ?
Found: inactive

Lookup: Item under review: NS(=O)(=O)O . Reported outcome?
Found: inactive

Lookup: Need outcome of CNNCc1ccc(C(=O)NC(C)C)cc1 , thanks.
Found: inactive
